Biological target: T1, hu-M-IL1RAP construct, positions S21-T367 (extracellular domain of the membrane form of human IL1RAP) (human, UniProt Q9NPH3 21-367)
T1 construct: Biotinylated when captured on the Biacore chip
T1 sequence: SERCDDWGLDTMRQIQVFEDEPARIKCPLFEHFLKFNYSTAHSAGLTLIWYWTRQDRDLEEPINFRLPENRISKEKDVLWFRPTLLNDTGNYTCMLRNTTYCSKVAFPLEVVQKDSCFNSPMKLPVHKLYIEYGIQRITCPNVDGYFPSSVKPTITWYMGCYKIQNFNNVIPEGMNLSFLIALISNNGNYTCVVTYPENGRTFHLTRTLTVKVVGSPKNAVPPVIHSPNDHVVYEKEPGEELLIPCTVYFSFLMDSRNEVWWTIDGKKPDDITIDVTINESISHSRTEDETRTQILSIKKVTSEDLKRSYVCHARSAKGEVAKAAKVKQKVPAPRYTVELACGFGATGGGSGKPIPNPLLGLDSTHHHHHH
Assay: BLI (OCTET), mAb captured, 25 C
value-kind: Kd (nM)

{"binder": "m11C5_C59T (antibody, mouse IgG2a, V domains shown, Murine IgG2a constant domains) VH: EVQLVESGGGLVKPGGSLKLSCAASGFTFSNYAMSWVRQTPEKRLEWVATVTEGGDYNYTLDDVKGRFTISRDNANDNLYLQMSHLKSEDSARYYCARDRWPYFFDYWGQGTTLTVSS VL: DIQMTQSPASLSVSVGETVTITCRASENIYSNLAWYQQKQGRSPQLLVYGAKNLADGVPSRFSGSGSGTQYSLNINSLQSEDFGTYYCQHFWTTPRTFGGGTKLEIK", "value-kind": "Kd", "measured-result": 1.38}
{"binder": "h11C5_C59T (antibody, human IgG1, V domains shown, Human IgG1/kappa constant domains) VH: EVQLVESGGGLVQPGGSLRLSCAASGFTFSNYAMSWVRQAPGKGLEWVATVTEGGDYNYTLDDVKGRFTISRDNAKNSLYLQMNSLRAEDTAVYYCARDRWPYFFDYWGQGTLVTVSS VL: DIQMTQSPSSLSASVGDRVTITCRASENIYSNLAWYQQKPGKAPKLLVYGAKNLADGVPSRFSGSGSGTDYTLTISSLQPEDFATYYCQHFWTTPRTFGGGTKVEIK", "value-kind": "Kd", "measured-result": 3.26}
{"binder": "h11C5 (humanized 11C5 mAb) (antibody, human IgG1, kappa, N297G, V domains shown, Human IgG1/kappa) VH: EVQLVESGGGLVQPGGSLRLSCAASGFTFSNYAMSWVRQAPGKGLEWVATVTEGGDYNYCLDDVKGRFTISRDNAKNSLYLQMNSLRAEDTAVYYCARDRWPYFFDYWGQGTLVTVSS VL: DIQMTQSPSSLSASVGDRVTITCRASENIYSNLAWYQQKPGKAPKLLVYGAKNLADGVPSRFSGSGSGTDYTLTISSLQPEDFATYYCQHFWTTPRTFGGGTKVEIKR", "value-kind": "Kd", "measured-result": 1.06}
